B1: VH:VL chains; a variant is named by its letters at X, in order (parent)
chain 1: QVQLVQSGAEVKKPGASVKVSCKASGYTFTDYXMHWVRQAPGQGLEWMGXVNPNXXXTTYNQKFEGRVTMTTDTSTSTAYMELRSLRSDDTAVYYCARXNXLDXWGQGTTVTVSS
chain 2: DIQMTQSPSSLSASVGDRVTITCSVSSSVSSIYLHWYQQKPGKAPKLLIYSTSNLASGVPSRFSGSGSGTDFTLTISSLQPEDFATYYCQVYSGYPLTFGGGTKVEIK

Variants of: B1
protocol_details: yeast display scFab, FACS + sequencing
endpoint: non-specific binding call

These recorded examples may help you get a feel for the data.
# variant_code, non-specific binding call
measured = [
    ("DGGKNDGD", "no binding"),
    ("DRREDSSA", "no binding"),
    ("FKGEGDVY", "no binding"),
    ("VRTGDDGV", "no binding"),
    ("VEGGGDGV", "no binding"),
    ("YRGANSVF", "binds"),
]

Ask | I would be grateful if you could share the reported non-specific binding call for `SKERGSLV` .
Reply | no binding

Ask | I would be grateful if you could share the reported non-specific binding call for `FRGRDDVF` .
Reply | no binding

Ask | I would be grateful if you could share the reported non-specific binding call for `YKRGSSSD` .
Reply | binds

Ask | I would be grateful if you could share the reported non-specific binding call for `VGGRADGF` .
Reply | binds

Ask | I would be grateful if you could share the reported non-specific binding call for `VGGGASGV` .
Reply | no binding
